# target-or-test-system: Endonuclease III-like protein 1 (Homo sapiens);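 also: enzyme assay tracking NTHL1 cutting and release of a quenched double-stranded DNA oligo substrate, read as fluorescence at 594 nm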
# Sequence (whole entry): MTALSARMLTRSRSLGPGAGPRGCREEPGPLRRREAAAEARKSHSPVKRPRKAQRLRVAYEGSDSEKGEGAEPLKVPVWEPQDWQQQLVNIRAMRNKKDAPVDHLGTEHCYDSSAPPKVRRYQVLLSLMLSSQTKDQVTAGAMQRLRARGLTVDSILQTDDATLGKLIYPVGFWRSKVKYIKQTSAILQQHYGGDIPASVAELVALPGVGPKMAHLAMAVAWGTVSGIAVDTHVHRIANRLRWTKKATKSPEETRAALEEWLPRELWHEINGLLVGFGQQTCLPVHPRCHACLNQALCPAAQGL
# assay-setup: Compound Concentration 10.0 uM, Hit No
# Description: Inhibition of NTHL1 by quantifying inhibition of NTHL1-mediated cleavage and dissociation of quenched duplex DNA oligonucleotides, measured as fluorescence at 594 nm.
reported-endpoint: inhibition

compound	inhibition
CN1CCC(C(=O)c2cccc(NC(=O)c3c(F)cc(F)cc3F)n2)CC1	-6.14%
NCCc1ccc(O)c(O)c1	21%
C[C@@H]1CN(c2nccc(Nc3ccc4c(c3)n(CCC(C)(C)O)c(=O)n4C)n2)C[C@H](C)C1(F)F	-0.63%
CC(C)C(=O)Nc1n[nH]c2cc(-c3cccc(NS(=O)(=O)C4CC4)c3)ccc12	-0.61%
C[C@@H]1C[C@H](C)CN(c2ncc(Cl)c(Nc3ccc4c(c3)cc(OC(C)(C)C(=O)O)c(=O)n4C)n2)C1	-6.88%

Go through the items and report each one's inhibition.
1. CNC(=O)c1ccc(Nc2ncc(C(F)(F)F)c(NCc3nccnc3N(C)S(C)(=O)=O)n2)cc1
2. Cc1nn(C)c2nc(NNC(=O)Nc3cc(Cl)nc(Cl)c3)cc(C(C)C)c12
3. O=c1ccc2c(OCCCCc3ccccc3)c3ccoc3cc2o1

a:
-7.86%
4.12%
7.17%

Go through the items and report each one's inhibition.
1. Cc1cc(C)cc(-c2cnc3cc(Cl)c(-c4cccc(O)c4)cc3c2OCCCN)c1
2. CN1CCN(c2ccnc(NCCc3ccccc3)n2)CC1
3. COc1cc2nc(N3CCN(C(=O)C4CCCO4)CC3)nc(N)c2cc1OC (stereo not given)
4. CN(C)CCOc1ccc(-c2nc(-c3ccncc3)c(-c3ccc4c(c3)CC/C4=N\O)[nH]2)cc1
5. CC(=O)Nc1c(F)cc(C(=O)N[C@H]2CC[C@H](O)CC2)cc1O[C@@H](C)c1ccccc1
6. FC(F)(F)c1ccc(N2CCNCC2)nc1Cl

a:
-4.67%
-9.83%
-3.21%
11.2%
5.29%
11.3%

q: # input compound: O=C(NCCCC1CCCCC1)c1ccc(CNC(=O)c2cnn(-c3ccccc3)c2C(F)(F)F)cc1 ; wanted: its inhibition
a: -3.4%

====

# target-or-test-system: Single-strand selective monofunctional uracil DNA glycosylase (Homo sapiens)
# Sequence (whole entry): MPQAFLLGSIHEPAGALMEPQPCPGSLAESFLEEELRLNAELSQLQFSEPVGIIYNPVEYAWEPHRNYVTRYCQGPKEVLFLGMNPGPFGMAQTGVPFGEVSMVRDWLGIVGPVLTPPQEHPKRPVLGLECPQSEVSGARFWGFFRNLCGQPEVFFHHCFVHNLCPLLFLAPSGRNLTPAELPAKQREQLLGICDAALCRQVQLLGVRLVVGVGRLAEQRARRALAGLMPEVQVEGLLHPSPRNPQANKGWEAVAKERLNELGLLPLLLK
# assay-setup: Compound Concentration 10.0 uM, Hit No
# Description: Inhibition of SMUG1 by quantifying inhibition of SMUG1-mediated cleavage and dissociation of quenched duplex DNA oligonucleotides, measured as fluorescence at 594 nm. To generate a functional strand incision and increase turn-over this assay is coupled to APE1.
I'd appreciate it if you could supply inhibition values for the items below.
Answers are plain numbers, in %.

mol-smiles	inhibition, %
CN(C)CCN(Cc1ccc(-c2ccc(CNCCc3ccccc3)cc2)cc1)C(=O)CCC1CCCC1	-6.4
CNC(=O)c1cc(C(=O)NC2CC2)cn(Cc2ccccc2)c1=O	-2.99
Cc1c(NC(=O)COc2ccc(Cl)cc2C(=O)c2cc(F)cc(C(F)(F)F)c2)ccc(C(=O)O)c1F	10.3
C[C@@H]1CN(Cc2ccc(F)cc2)CCN1C(=O)COc1ccc(Cl)cc1NC(N)=O	-3.18
Cc1cc(C)c(N)c(C#Cc2cccc(F)c2)n1	6.75

Go through the items and report each one's inhibition.
1. O=C(COc1cccc2ccccc12)Nc1cc(Cl)ccc1C(=O)O
2. O=[N+]([O-])c1ccc2nc(COCc3nc4ccc([N+](=O)[O-])cc4[nH]3)[nH]c2c1
3. Cn1c(C2(NC(=O)c3ccc4c(C5CCCC5)c(-c5ncc(Br)cn5)n(C)c4c3)CCC2)nc2ccc(/C=C/C(=O)O)cc21

a:
8.57
4.96
25.4

====

I'd appreciate it if you could supply inhibition values for the items below.
# target-or-test-system: Single-strand selective monofunctional uracil DNA glycosylase (Homo sapiens);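 also: enzymatic SMUG1 assay coupled with APE1, reading fluorescence at 594 nm released when a quenched double-stranded DNA oligonucleotide substrate is cleaved and separated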
# Sequence (whole entry): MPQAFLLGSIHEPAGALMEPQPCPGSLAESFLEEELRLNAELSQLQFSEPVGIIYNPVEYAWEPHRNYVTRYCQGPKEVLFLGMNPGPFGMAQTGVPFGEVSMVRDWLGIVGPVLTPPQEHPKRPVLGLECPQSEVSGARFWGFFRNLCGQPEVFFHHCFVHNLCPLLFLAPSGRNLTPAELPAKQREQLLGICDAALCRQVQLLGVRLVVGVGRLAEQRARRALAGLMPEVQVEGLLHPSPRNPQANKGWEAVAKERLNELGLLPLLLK
# assay-setup: Compound Concentration 10.0 uM, Hit No
Give bare numbers, in %.

// worked examples, inhibition included
mol-smiles	inhibition / %
Cc1cc(SCc2sc(-c3ccc(C(F)(F)F)cc3)nc2C)ccc1OCC(=O)O	18.5
N#Cc1cc(F)cc(-c2nc(-c3ccc(F)cn3)no2)c1	-0.692
COc1cc([N+](=O)[O-])ccc1NC(=O)c1ccccc1O	9.42
COc1cccc(Cn2cc(C(=O)Nc3ccc(C)c(S(=O)(=O)N4CCOCC4)c3)c(-c3ccc(C)cc3)n2)c1	2.42
NC(=O)NN=Cc1ccc(Oc2ccc(F)cc2)cc1	-4.59

Go through the items and report each one's inhibition.
1. Cc1c(C(=O)O)cc(-c2ccc(C3CCNCC3)cc2)c2ccc(-c3ccc(C(F)(F)F)cc3)cc12
2. O=C(O)c1ccc(C(=O)N[C@@H](c2ccc(OC(F)(F)F)c(F)c2)c2ncccc2F)nc1
3. Fc1ccc(-c2c3cccc(C(F)(F)F)c3nn2Cc2ccc(F)cc2Cl)cc1
4. COC1(C[S@@+]([O-])c2ccccc2)CCN(CCc2c[nH]c3ccc(F)cc23)CC1

a:
4.5
-6.46
12.2
-8.49

====

# target-or-test-system: UniProtKB P78549
# assay-setup: Compound Concentration 10.0 uM, Hit No
reported-endpoint: inhibition (%)
Numbers only, in %.

Go through the items and report each one's inhibition.
1. CN1C2CCCC1CC(Nc1ccccc1Br)C2 (stereo unspecified)
2. CN1CCN2c3ccccc3Cc3ccccc3C2C1 (stereo unspecified)
3. CCc1nn2c(C)cc(C)nc2c1Cc1ccc(-c2nnc(C3CCNCC3)o2)cc1
4. CCN1CCC[C@H]1CNC(=O)c1c(OC)ccc(Br)c1OC
5. c1ccc2nc(N3CCNCC3)ccc2c1
6. N[C@@H](CCP(=O)(O)O)C(=O)O

a:
1: 24.5; 2: -6.86; 3: -9.8; 4: -4.67; 5: 13.8; 6: 12.1

====

# target-or-test-system: G/T mismatch-specific thymine DNA glycosylase (Homo sapiens) (UniProt Q13569);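 also: human TDG cleavage of quenched duplex DNA oligonucleotides coupled to APE1, strand release read as fluorescence at 594 nm, inhibition of TDG activity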
# Sequence (Q13569 whole entry): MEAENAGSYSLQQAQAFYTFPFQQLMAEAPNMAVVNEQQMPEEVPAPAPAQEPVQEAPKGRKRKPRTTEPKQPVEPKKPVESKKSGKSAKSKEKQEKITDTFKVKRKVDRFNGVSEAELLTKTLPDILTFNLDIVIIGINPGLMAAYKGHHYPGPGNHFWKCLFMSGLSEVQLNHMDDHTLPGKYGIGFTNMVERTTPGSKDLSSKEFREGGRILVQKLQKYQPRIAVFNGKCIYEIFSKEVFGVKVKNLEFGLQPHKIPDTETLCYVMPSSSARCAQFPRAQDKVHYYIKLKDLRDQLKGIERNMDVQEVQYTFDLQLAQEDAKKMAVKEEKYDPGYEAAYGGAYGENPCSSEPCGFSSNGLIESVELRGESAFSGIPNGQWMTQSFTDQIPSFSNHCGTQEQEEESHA
# assay-setup: Compound Concentration 10.0 uM, Hit No
# Description: Inhibition of TDG by quantifying inhibition of TDG-mediated cleavage and dissociation of quenched duplex DNA oligonucleotides, measured as fluorescence at 594 nm. To generate a functional strand incision and increase turn-over this assay is coupled to APE1.
reported-endpoint: inhibition (%)
Numbers only, in %.

Go through the items and report each one's inhibition.
1. C[C@H](CCOc1cccc(CC(=O)O)c1)N(Cc1cccc(C(F)(F)F)c1Cl)CC(c1ccccc1)c1ccccc1
2. O=C1CSC(=O)N1C(CCc1ccncc1)COc1ccc(-c2cccc([N+](=O)[O-])c2)cc1 (stereo not given)
3. CN(C)[C@@H]1CCN(c2cc(-c3ccccc3)nc3ccnn23)C1

a:
[52, -8.91, 46.8]

====

I'd appreciate it if you could supply inhibition values for the items below.
# target-or-test-system: Methyl-CpG-binding domain protein 4 (Homo sapiens) (UniProt O95243);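 also: MBD4 activity read as fluorescence at 594 nm from cleavage and release of a quenched duplex DNA oligonucleotide, with APE1 coupled to incise the strand and raise turnover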
# Sequence (O95243 whole entry, the tested form may be a part): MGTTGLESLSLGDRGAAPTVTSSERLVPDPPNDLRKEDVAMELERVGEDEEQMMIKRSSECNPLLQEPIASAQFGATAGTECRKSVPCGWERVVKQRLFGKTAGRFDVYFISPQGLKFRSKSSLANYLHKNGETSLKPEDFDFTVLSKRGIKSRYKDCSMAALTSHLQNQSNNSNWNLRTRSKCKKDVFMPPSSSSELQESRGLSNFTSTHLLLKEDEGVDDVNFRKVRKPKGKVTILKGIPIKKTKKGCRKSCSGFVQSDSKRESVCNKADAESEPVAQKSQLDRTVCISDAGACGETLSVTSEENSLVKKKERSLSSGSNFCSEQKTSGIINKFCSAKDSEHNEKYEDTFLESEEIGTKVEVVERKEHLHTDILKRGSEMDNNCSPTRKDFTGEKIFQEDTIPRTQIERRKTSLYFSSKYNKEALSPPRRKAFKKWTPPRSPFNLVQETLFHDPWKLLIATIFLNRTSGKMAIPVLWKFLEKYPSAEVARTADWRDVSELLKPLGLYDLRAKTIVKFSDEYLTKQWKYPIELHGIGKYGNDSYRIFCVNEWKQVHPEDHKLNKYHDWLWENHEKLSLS
# assay-setup: Compound Concentration 10.0 uM, Hit No
# Description: Inhibition of MBD4 by quantifying inhibition of MBD4-mediated cleavage and dissociation of quenched duplex DNA oligonucleotides, measured as fluorescence at 594 nm. To generate a functional strand incision and increase turn-over this assay is coupled to APE1.
Give the figure together with its unit, number first.

// worked examples, inhibition included
molecule	target-or-test-system	meas-value
O=C(Nc1cnc(Oc2ccc(F)cc2)nc1)N1CCc2ncccc2[C@@H]1c1ccc(F)cc1	Methyl-CpG-binding domain protein 4 (Homo sapiens) (UniProt O95243)	70.5%
C[C@@H](c1cccc(C#N)c1)n1cc(Cl)cc(C(N)=O)c1=N	Methyl-CpG-binding domain protein 4 (Homo sapiens) (UniProt O95243)	67%
Cn1c(C2(NC(=O)c3ccc4c(C5CCCC5)c(-c5ncc(Br)cn5)n(C)c4c3)CCC2)nc2ccc(/C=C/C(=O)O)cc21	Methyl-CpG-binding domain protein 4 (Homo sapiens) (UniProt O95243)	69.3%

Go through the items and report each one's inhibition.
1. N[C@@]1(C(=O)O)CO[C@H]2[C@H](C(=O)O)[C@H]21
2. C[N+]1(C)[C@@H]2C[C@@H](OC(=O)C(O)(c3cccs3)c3cccs3)C[C@H]1[C@@H]1O[C@@H]12

a:
1: 10.3%; 2: -8.5%
